Data provenance: PubChem BioAssay (NCI)

System: T-47D breast
Experiment: NCI-60 one-dose screen, 48 h (100 = growth as untreated, 0 = no growth, -100 = all killed)
Details: 10 µM
This is part of a sample that, as a whole, favours compounds with a hit. Of some 83,000 tested, about 20% had one in any assay.
Recorded growth split into classes bin A = under 50%, bin B = from 50% up to 90%, bin C = 90% and over

Study these solved cases before continuing.
[[record]]
molecule = "Oc1cccc(Nc2nc(-c3ccccn3)cs2)c1"
assignedclass = "bin B"

[[record]]
molecule = "COc1ccc(Cn2c(Br)c3c(c2-c2cc(OC)c(OC)c(OC)c2)CCc2sc(N)nc2-3)cc1"
assignedclass = "bin B"

[[record]]
molecule = "COc1ccc(-c2csc3c2-n2cccc2C3=O)cc1O"
assignedclass = "bin B"

[[record]]
molecule = "CCCCCCCCCCCCCCNc1nc(CO)ncc1-c1ccc(C(F)(F)F)cc1"
assignedclass = "bin C"

[[record]]
molecule = "Nc1nc2c(s1)CCc1c-2c(Br)n(Cc2ccccc2)c1Br"
assignedclass = "bin A"

[[record]]
molecule = "CN1CCc2c(Sc3ccc(C(=O)NO)cc3)c3ccccc3n2C1"
assignedclass = "bin A"

[[record]]
molecule = "C=C[C@H]1C[C@@H]2C[C@@H]3[C@H]4C/C=C\\C(=O)NCCCC5NC(=O)C(=C(O)/C=C/[C@@H]4CC(=O)[C@H]3[C@@H]2[C@H]1C)C5=O (stereo partly drawn)"
assignedclass = "bin A"

[[record]]
molecule = "COc1cc(C(=O)/C=C/c2c(-c3cccs3)nc3sccn23)cc(OC)c1OC"
assignedclass = "bin A"

[[record]]
molecule = "CCOC(=O)c1c(Cl)c2c(n1Cc1ccc(OC)cc1)-c1oncc1CCC2"
assignedclass = "bin B"

[[record]]
molecule = "CCN1CCN(c2nc3ccccc3c3c(=O)c4cc(F)ccc4sc23)CC1"
assignedclass = "bin B"


Please find the next molecule below.
Incoming: Which class holds CC1(C)CC(=O)C2=C(C1)Nc1cc3c(cc1C2c1ccc(F)cc1)OCO3 (stereo not drawn) ?
Outgoing: bin B

###

System: MCF7 breast
Assay: NCI-60 one-dose screen, 48 h
Settings: 10 µM unless noted
Compounds without any hit were thinned out: in the full panel of roughly 83,000, 20% have a hit. Activity calls are given as the source filed them. How the source made its calls: active means growth percent below 10; inactive means the rest.
Entry note: the call must match one of true (1) for active, false (0) for inactive

Study these solved cases before continuing.
[[record]]
molecule = "Cn1cc(C(=O)NCCC(=N)N)cc1NC(=O)CN=C(N)N"
assignedclass = "false (0)"

[[record]]
molecule = "CN1CCN(C(=O)OCCOCCOC(=O)N2CCN(C)CC2)CC1"
assignedclass = "false (0)"

[[record]]
molecule = "O=[N+]([O-])c1ccc(O)c2ncccc12"
assignedclass = "false (0)"

[[record]]
molecule = "O=c1nc(NO)[nH]c(=O)n1Cc1ccccc1"
assignedclass = "false (0)"

[[record]]
molecule = "CN1CCN(CCCn2c3c(sc4ncccc43)c(=O)n3nnc(-c4ccccc4)c23)CC1"
assignedclass = "true (1)"

[[record]]
molecule = "CN1CCC(OC2c3ccccc3CCc3ccccc32)CC1"
assignedclass = "false (0)"

[[record]]
molecule = "FC(F)(F)Oc1ccc2c(c1)C[C@H]1C[C@@H](c3ccoc3)N2O1"
assignedclass = "false (0)"

[[record]]
molecule = "Nc1c(Br)cc(Br)cc1-c1n[nH]c(=O)[nH]c1=O"
assignedclass = "false (0)"

[[record]]
molecule = "O=S(=O)(Nc1ccc(Cl)c(Cl)c1)c1ccc(-c2cnc(C3CC3)o2)cc1"
assignedclass = "false (0)"

[[record]]
molecule = "CC(C)(C)CC(C)(C)N(CSc1ccc(Cl)cc1)CSc1ccc(Cl)cc1"
assignedclass = "false (0)"


Incoming: How was COc1cccc(-c2ccc3c(c2)C2CCN(Cc4ccccc4)C3C2)c1 (stereo unspecified) classified in this test?
Outgoing: false (0)

Incoming: Queued: O=C(O)C[C@H](O)C[C@H](O)/C=C/c1c(C2CC2)nc2ccccc2c1-c1ccc(F)cc1
Outgoing: false (0)

Incoming: Queued: COc1cc(C2=NN(c3ccc(S(N)(=O)=O)cc3)C(c3ccc(Cl)cc3)C2)cc(OC)c1OC (stereo unspecified)
Outgoing: false (0)

Incoming: Queued: Cl.Fc1c[c-]c(-c2ccccn2)c(F)c1.[Pt].c1ccc([PH+](CC[PH+](c2ccccc2)c2ccccc2)c2ccccc2)cc1
Outgoing: true (1)

Incoming: Queued: COC(=O)[C@@]12CC[C@@H](C)[C@]3(C[C@@H](c4ccoc4)OC3=O)[C@H]1CC[C@@H]1O[C@@]12C
Outgoing: false (0)

Incoming: Queued: COc1ccc(/C=C/C(=O)N2CCC(O)CC2)cc1OC1CCCC1
Outgoing: false (0)

Incoming: Queued: Cn1c2ccccc2c2nn(C(=O)c3ccccc3)c(=O)nc21
Outgoing: false (0)
